# Test system: Amaranthus retroflexus
# protocol: greenhouse pre-emergence herbicidal test
# Type: in vivo
# condition-description: 31 g/ha
recorded-metric: herbicidal activity (%)
Response body: numeric value in %, unit text excluded.

Quick check: herbicidal activity of COc1c(Cl)cc(Br)c(C)c1Nc1nc(N)nc(C2(F)CCCC2)n1 ? 100

Now try COc1c(Cl)cc(C)c(Cl)c1Nc1nc(N)nc(C(C)(C)F)n1 . 80

Okay, now this compound:
Data request, read-out herbicidal activity, for COc1c(Br)cc(F)c(Cl)c1Nc1nc(N)nc(C(C)(C)F)n1 100

====

# Test system: Echinocloa crus-galli
# protocol: greenhouse pre-emergence herbicidal test
# Assay type: in vivo
# condition-description: 125 g/ha
recorded-metric: herbicidal activity (%)
Give the value, in units of %, as a plain number.

Recorded results for 5 molecules are shown here.
Could you tell me which herbicidal activity is on file for COc1c(Cl)cc(Cl)c(C)c1Nc1nc(N)nc(C2(F)CCCC2)n1 ? 85

Next molecule: Cc1c(Br)cc(F)c(OCc2ccccc2)c1Nc1nc(N)nc(C(C)(C)F)n1 100

Next: COc1c(Cl)cc(Cl)c(C)c1Nc1nc(N)nc(C(F)(F)F)n1 100

Same question for COc1c(F)cc(F)c(C)c1Nc1nc(N)nc(C(C)(C)F)n1 please. 100

Try COc1c(C)ccc(C)c1Nc1nc(N)nc(C(C)(C)F)n1 next. 98

New cases:
# get_value(readout='herbicidal activity', item= COc1c(Cl)cc(C)c(C)c1Nc1nc(N)nc(C(C)(C)F)n1 ) 100

Okay, and COc1c(F)cc(Cl)c(C)c1Nc1nc(N)nc(C(C)(C)F)n1 ? 100

Where do the numbers come from? From patent US20240150303A1.
